Measured IC50 of individual entries
# SYSTEM NAME: beta-catenin (human)
# Sequence (B6V8E6 146-665 limits assumed): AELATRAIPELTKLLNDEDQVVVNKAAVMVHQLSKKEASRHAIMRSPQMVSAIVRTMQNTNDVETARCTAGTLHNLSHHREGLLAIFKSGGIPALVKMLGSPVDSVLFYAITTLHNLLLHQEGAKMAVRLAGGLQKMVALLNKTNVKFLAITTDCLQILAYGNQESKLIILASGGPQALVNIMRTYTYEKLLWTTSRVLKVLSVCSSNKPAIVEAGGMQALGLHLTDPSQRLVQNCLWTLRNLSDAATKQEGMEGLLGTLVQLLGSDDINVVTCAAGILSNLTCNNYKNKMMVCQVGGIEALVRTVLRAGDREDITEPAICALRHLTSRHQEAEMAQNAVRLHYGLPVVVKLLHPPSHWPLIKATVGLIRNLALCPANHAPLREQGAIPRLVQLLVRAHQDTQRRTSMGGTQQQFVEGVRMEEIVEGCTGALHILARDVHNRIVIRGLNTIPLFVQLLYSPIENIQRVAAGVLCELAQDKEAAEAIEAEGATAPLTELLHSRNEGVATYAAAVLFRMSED
# PROTOCOL SUMMARY: fluorescence polarization
*1 amine or outer side, *2 acyl side, *3 side chain or, on linkers, in order; H or OH if unused. Bridges are numbered along the chain shown (N, C = ends). Primed or numbered codes have the meaning given here. [ ]: non-standard residue; d: D form. PyrS2(6) = (S)-3-amino-1-((pent-4-en-1-yloxy)carbonyl)pyrrolidine-3-carboxylic acid, stapled with another olefin-containing amino acid residue through the olefin group, O=C(OCCCC=[*:3])N1CC[C@@](N[*:1])(C(=O)[*:2])C1; B5(4) = 2-amino-2-(pent-4-en-1-yl)hept-6-enoic acid, stapled through each of its two olefin groups with other olefin-containing amino acid residues, O=C(C(CCCC=[*:3])(CCCC=[*:4])N[*:1])[*:2]; PyrS2″ = (S)-3-amino-1-((pent-4-en-1-yloxy)carbonyl)pyrrolidine-3-carboxylic acid (olefin stapling residue), C=CCCCOC(=O)N1CC[C@@](N[*:1])(C(=O)[*:2])C1; PyrS2(3) = (S)-3-amino-1-((pent-4-en-1-yloxy)carbonyl)pyrrolidine-3-carboxylic acid, olefin residue, C=CCCCOC(=O)N1CC[C@@](N[*:1])(C(=O)[*:2])C1; B5″ = 2-amino-2-(pent-4-en-1-yl)hept-6-enoic acid (bis-olefin stapling residue), C=CCCCC(CCCC=C)(N[*:1])C(=O)[*:2]; B5(3) = 2-amino-2-(pent-4-en-1-yl)hept-6-enoic acid, two olefin arms, C=CCCCC(CCCC=C)(N[*:1])C(=O)[*:2]; Phe(3-COOH) = N[C@@H](Cc1cccc(C(=O)O)c1)C(=O)O; 2F3MeF = Cc1cccc(C[C@H](N[*:1])C(=O)[*:2])c1F; Phe(2-Cl) = N[C@@H](Cc1ccccc1Cl)C(=O)O; Bta = N[C@@H](Cc1csc2ccccc12)C(=O)O; αAllylPro = C=CC[C@@]1(C(=O)O)CCCN1; tBuAla = CC(C)(C)C[C@H](N)C(=O)O; 3Thi = N[C@@H](Cc1ccsc1)C(=O)O; Suc = O=C(CCC(=O)[*:2])[*:1]; hSer = N[C@@H](CCO)C(=O)O; TfeGA = not defined here; GlnR = not defined here
MEASUREMENT NAME: IC50

Ac-[αAllylPro]D[tBuAla][B5″][hSer][TfeGA]AAFK[PyrS2″][2F3MeF][Bta][GlnR]A-NH2 (bridge 10-14; not fully specified (bridges); reading uncertain; also: Lys*3 and GlnR*3 marked *3) [I-118] ... > 1000 nM
Ac-[αAllylPro]D[tBuAla][B5(4)]D[Phe(3-COOH)]K(Suc)AFL[PyrS2(6)][Phe(2-Cl)][Bta]K-NH2 (not fully specified (residue 6, bridges); printed as Ac-PL3-Asp-Npg-B5-Asp-3COOHF-[succinate]-Lys-Ala-Phe-Leu-PyrS2-2ClF-BztA-Lys-NH2) [I-51] ... < 50 nM
Ac-[αAllylPro]D[tBuAla][B5(3)]D[Phe(3-COOH)]AAFK[PyrS2(3)][3Thi][Bta][GlnR]-Prool (bridge 10-14; not fully specified (bridges); printed as Ac-PL3-Asp-Npg-B5-Asp-3COOHF-Ala-Ala-Phe-Lys*3-PyrS2-3Thi-BztA-GlnR*3-Prool; reading uncertain) [I-64] ... < 50 nM
